# Tested on: HCT-116
# experimentDescription: NCI tumour cell line growth inhibition, 48 h
Active and inactive are the calls of the source. Rule as the data show it: active = GI50 up to about 1.1 µM and inactive = higher. Positions of bridges follow the written chain, without caps; N, C: chain ends. Non-standard residues stand in square brackets, D forms with d. Residues, ends and D or L forms follow the SMILES beside them. *: point of attachment. PhAc = O=C(Cc1ccccc1)*
Outcomes: YES for active, NO for inactive

>>> categorylabel("O=C(Nc1sccc1S(=O)(=O)c1ccccc1)c1cccnc1")
"NO"
>>> categorylabel("C1CCC(OC2CSC2)OC1 (configuration not stated)")
"NO"
>>> categorylabel("Nc1nc2[nH]cnc2c(=O)[nH]1")
"NO"
>>> categorylabel("COc1ccc(-c2nc3ncccn3c2-c2ccc(SC)cc2)cc1")
"YES"
>>> categorylabel("O=C(Cc1ccccc1)N[C@@H]1COC(=O)[C@@H]2CCCN2C(=O)[C@@H]2CCCN2C1=O (PhAc-[dS]-Pro-Pro; ester 1-C)")
"NO"
>>> categorylabel("CC(=O)N1C(Nc2cccc3nc(C)ccc23)CCN1c1ccccc1 (configuration not stated)")
"NO"
>>> categorylabel("COc1ccc(C(C2=C(C)C(=O)c3ccccc3C2=O)c2ccc(C(C)C)cc(=O)c2O)cc1 (configuration not stated)")
"NO"
>>> categorylabel("CCOC(=O)c1cc2c3c(c(O)c(OC)c2s1)N(C(=O)c1cc2c4c(c(O)c(OC)c2s1)N(C(C)=O)CC4)CC3")
"NO"
>>> categorylabel("O=C(CSCC(=O)N/N=C\\c1ccc(-c2ccccc2)cc1)N/N=C\\c1ccc(-c2ccccc2)cc1")
"NO"
>>> categorylabel("COc1ccc(C2=Nn3c(nc4sc(-c5ccccc5)cc4c3=O)SC2)cc1")
"NO"
>>> categorylabel("Cc1cccc(/C=N/N=C(\\N)NO)n1")
"NO"
>>> categorylabel("FC(F)(F)c1nc2cc(SSc3cc4nc(C(F)(F)F)[nH]c4cc3Cl)c(Cl)cc2[nH]1")
"NO"
>>> categorylabel("C/C=C1/CCC2c3[nH]c4ccccc4c3CCN2C1 (configuration not stated)")
"NO"
>>> categorylabel("CCOC(=O)C/N=c1\\nc(SC)sc2c(C(=O)OCC)nc(Sc3ccccc3)n12")
"NO"
>>> categorylabel("O=C1Nc2ccc(Br)cc2/C1=C/C(=O)c1ccccc1")
"NO"
>>> categorylabel("N#Cc1cc(C#N)c(N)nc1N")
"NO"
>>> categorylabel("c1ccc2c(-c3cnc(-c4c[nH]c5ccccc45)cn3)c[nH]c2c1")
"NO"
>>> categorylabel("CCOCCOC(=O)C1CCC(=O)N1CN(C(C)=O)c1cc(OC)ccc1OC (configuration not stated)")
"NO"
>>> categorylabel("Cc1cccc(NC(Nc2cccc(C)c2)=C(C(Cl)=C(Cl)Cl)[N+](=O)[O-])c1")
"NO"
>>> categorylabel("N#Cc1c(-c2ccc(F)cc2)c(-c2ccc(F)cc2)nn(CCO)c1=O")
"YES"
>>> categorylabel("CCOC(=O)N(CC)c1c(C(F)(F)F)cc(-c2ccccc2)[nH]c1=O")
"NO"
>>> categorylabel("COc1cccc2c1C(=O)c1c(O)c3c(c(O)c1C2=O)C[C@@](O)(C(C)=O)C[C@@H]3OC1OC(C)C(O)C(N)C1Br (some centres not stated)")
"YES"
>>> categorylabel("O=C1OC(O)c2cc3c(cc21)OCO3 (configuration not stated)")
"NO"
>>> categorylabel("Cc1cc2c(=O)cc(-c3ccc(O)cc3)oc2c(C(=O)O)c1C")
"NO"
>>> categorylabel("O=C1/C(=C/c2ccc(Cl)cc2)CCC1CCN1CCOCC1 (configuration not stated)")
"NO"
>>> categorylabel("CC1(C)C(=O)C(O)=CC2C1=CCC1C2(C)C(=O)CC2(C)C(C(C)(O)C(=O)CC(O)C(C)(C)O)C(O)CC12C (configuration not stated)")
"NO"
>>> categorylabel("COc1ccccc1N=C(S)Nc1ccccn1")
"NO"
>>> categorylabel("CCOC(=O)C(C)N1C(=O)c2ccccc2S1(=O)=O (configuration not stated)")
"NO"
>>> categorylabel("COc1ccc2c(c1)c(Cc1c(C)n(C)c3ccc(OC)cc13)c(C)n2C")
"NO"
>>> categorylabel("CN(O)C(=S)c1ccccc1")
"NO"
>>> categorylabel("COc1cc2ccnc3c2c(c1OC)N(C)C=C3")
"NO"
>>> categorylabel("CC1=NN(C(=O)c2ccc([N+](=O)[O-])cc2)C(=O)C1/N=N/c1ccccc1C(=O)O (configuration not stated)")
"NO"
>>> categorylabel("Cc1cccc(NC(=O)/C=C/c2ccc([N+](=O)[O-])cc2)c1")
"NO"
>>> categorylabel("O=C(O/N=C1/CCC/C1=C\\c1ccccc1)c1ccc(Cl)cc1")
"NO"
>>> categorylabel("O=C1CS(=O)(=O)C(c2cccc(Oc3ccccc3)c2)N1c1ccc(Cl)cc1 (configuration not stated)")
"NO"
>>> categorylabel("NC(=O)C(C(N)=O)=C(O)/C(O)=C/C(=O)c1ccccc1")
"NO"
>>> categorylabel("O=c1c2cc(-c3ccccc3)sc2nc2n1N=C(c1ccc(Cl)cc1)CS2")
"NO"
>>> categorylabel("O=c1c2ccccc2[se]n1-c1cccnc1")
"NO"
>>> categorylabel("COC12C=C(C)C(CC1)CC2C(=O)O (configuration not stated)")
"NO"
>>> categorylabel("COC(=O)C(N)CCCC(N)C(=O)NC(C)C(=O)NC(CCC(=O)NCCCNc1ccc([N+](=O)[O-])c2[nH]c3ccccc3c(=O)c12)C(N)=O (configuration not stated)")
"NO"
>>> categorylabel("CCOC(=O)NC(=O)c1cn(CCOC(=O)NCCCCCCNC(=O)OCCn2cc(C(=O)NC(=O)OCC)c(=O)[nH]c2=O)c(=O)[nH]c1=O")
"NO"
>>> categorylabel("O=C(CNc1ccccn1)Nn1cnc2ccc(S(=O)(=O)Nc3ccccn3)cc2c1=O")
"NO"

====

# Test system: DLD-1
# experimentDescription: NCI tumour cell line growth inhibition, 48 h
The source made the active and inactive calls. Rule as the data show it: active = GI50 up to about 1.1 µM and inactive = higher.
propertyMeasured: GI50

>>> observed("CN1C(=O)C2C=CC1C1CCC2N(C)C1=O (centres undefined)")
"> 100 µM (inactive)"
>>> observed("CN1CC2(CCCCC2)C(O)C12C=CCCC2 (centres undefined)")
"> 100 µM (inactive)"
>>> observed("CC1(C)C(=O)C(O)=CC2C1=CCC1C2(C)C(=O)CC2(C)C(C(C)(O)C(=O)CC(O)C(C)(C)O)C(O)CC12C (centres undefined)")
"3.19 µM (inactive)"
>>> observed("O=[N+]([O-])C=C1c2ccccc2-c2ccccc21")
"2.84 µM (inactive)"

====

# Test system: NCI/ADR-RES
# experimentDescription: NCI tumour cell line growth inhibition, 48 h
The source made the active and inactive calls. Cut-off read from the data, not from the text of the source: active = GI50 up to about 1.1 µM and inactive = higher.
The entries below are paired with their reported GI50.
propertyMeasured: GI50

>>> observed("OCc1cn(Cc2ccccc2)c2ccccc12")
"15.2 µM (inactive)"
>>> observed("CNC(=S)N/N=C(\\C)c1cc(OC)c(OC)cc1O")
"> 100 µM (inactive)"
>>> observed("CCOC(=O)CCSS(=O)(=O)c1ccccc1")
"> 100 µM (inactive)"
>>> observed("CCOC(=O)c1[nH]cc(C)c1-c1c[nH]c2ccccc12")
"21.4 µM (inactive)"
>>> observed("O=C1C(/C=C/c2ccc(Cl)cc2)=NNC2N1N=C1NC(=O)C3(NN12)c1ccccc1-c1ccccc13 (stereo unspecified)")
"> 100 µM (inactive)"
>>> observed("CSc1c(C(N)=S)c(N)nn1-c1ccccc1")
"> 100 µM (inactive)"

====

# Test system: NCI-H522
# experimentDescription: NCI tumour cell line growth inhibition, 48 h
Active and inactive are the calls of the source. Cut-off read from the data, not from the text of the source: active = GI50 up to about 1.1 µM and inactive = higher.
Outcomes: active, inactive

>>> categorylabel("C1CCC(OC2CSC2)OC1 (stereo unspecified)")
"inactive"
>>> categorylabel("Cc1cc2c(=O)cc(-c3ccc(O)cc3)oc2c(C(=O)O)c1C")
"inactive"
>>> categorylabel("O=C1Nc2ccc(Br)cc2/C1=C/C(=O)c1ccccc1")
"inactive"
>>> categorylabel("CC(C)CC(NC=O)C(=O)NC(Cc1ccccc1)NC(=O)CNC(=O)C(C)NC(=O)OC(C)(C)C (stereo unspecified)")
"inactive"
>>> categorylabel("Cc1cc(=O)oc2c3c(ccc12)OC(c1ccc(Br)cc1)CC3=O (stereo unspecified)")
"inactive"
>>> categorylabel("CN(O)C(=S)c1ccccc1")
"active"
>>> categorylabel("CCCCCCCCCCCCCCCC(=O)OCC1OC(N2C(=O)/C(=N\\NC(N)=S)c3ccc([N+](=O)[O-])cc32)C(OC(C)=O)C1OC(C)=O (stereo unspecified)")
"inactive"
>>> categorylabel("COc1ccc(/C=C2\\NC(=S)N(CN3CCCCC3)C2=O)cc1")
"inactive"
>>> categorylabel("O=C1CS(=O)(=O)C(c2cccc(Oc3ccccc3)c2)N1c1ccc(Cl)cc1 (stereo unspecified)")
"inactive"
>>> categorylabel("COc1ccc(/C(Cl)=C(\\C=O)c2ccc([N+](=O)[O-])cc2)cc1")
"inactive"
>>> categorylabel("CCC(C)CN1C(=O)NC(C)(Cc2ccccc2)C1=O (stereo unspecified)")
"inactive"

Taken from ChEMBL document CHEMBL1201862.
